Data origin: ChEMBL document CHEMBL5226360

- Assay Name: Half life in rat at 2 mg/kg, po
- Type: ADME, organism-based
- Condition Parameters: in vivo
Recorded Endpoint: half-life (min)
Give the number; min is assumed, so skip it.

Input: Supply measured half-life of CC(C)[C@H](Nc1ccc(CNC(=O)[C@@H]2CCCN2C(=O)C[C@H](N)Cc2cc(F)ccc2F)cc1)C(=O)O in your reply.
Output: 37.8

----------
- Assay Name: Oral bioavailability in dog at 3 mg/kg
- Assay type: ADME, organism-based, Canis lupus familiaris
- Condition Parameters: in vivo
Recorded measurements of bioavailability, one per entry

CC(C)[C@H](Nc1ccc(CNC(=O)[C@@H]2CSCN2C(=O)C[C@H](N)Cc2cc(F)ccc2F)cc1)C(=O)O < 2.5%

Input: Supply measured bioavailability of CC(C)[C@@H](Nc1ccc(CNC(=O)[C@@H]2SCCN2C(=O)C[C@H](N)Cc2cc(F)c(F)cc2F)cc1)C(=O)O in your reply.
Output: < 2.5%

----------
- Assay Name: Metabolic stability in pooled human liver microsomes assessed as parent compound remaining measured after 1 hr
- Type: ADME, Microsome
- Condition Parameters: read-out: Stability
Recorded Endpoint: remaining at 1 h (%)
Form entry: value (%) — number only.

Input: Give remaining at 1 h for CC(C)[C@@H](Nc1ccc(CNC(=O)[C@@H]2SCCN2C(=O)C[C@H](N)Cc2cc(F)c(F)cc2F)cc1)C(=O)O
Output: 98.9

----------
- Assay Name: Clearance in rat at 10 mg/kg, iv
- Type: ADME, organism-based
- Condition Parameters: in vivo
Recorded Endpoint: clearance (mL/min/kg)
I only need the number, in mL/min/kg, no unit after it.

Input: Give clearance for CC(C)[C@@H](Nc1ccc(CNC(=O)[C@@H]2SCCN2C(=O)C[C@H](N)Cc2cc(F)c(F)cc2F)cc1)C(=O)O
Output: 16.7

----------
- Target Or System: Human immunodeficiency virus type 1 protease (Human immunodeficiency virus 1)
Recorded Endpoint: Ki (nM)
Write down the numeric answer in nM and omit the unit.

Input: Look up and state reported Ki for CSC[C@H](NC(=O)COc1cccc2cnccc12)C(=O)N[C@@H](Cc1ccccc1)[C@H](O)C(=O)N1CSC[C@H]1C(=O)NC(C)(C)C
Output: 0.74

----------
- Assay Name: Volume of distribution at steady state in monkey at 3 mg/kg, iv
- Assay type: ADME, organism-based, Macaca mulatta
- Condition Parameters: rhesus monkey, in vivo, read-out: Vdss
Recorded Endpoint: Vd

Input: Note down Vd recorded for CC(C)[C@@H](Nc1ccc(CNC(=O)[C@@H]2SCCN2C(=O)C[C@H](N)Cc2cc(F)c(F)cc2F)cc1)C(=O)O
Output: 0.3 L/kg

----------
- Target Or System: Human immunodeficiency virus type 1 protease (Human immunodeficiency virus 1)
- Assay Name: Inhibition of HIV1 protease
The following compounds are listed with their measured pIC50 values.
The quantity pIC50 is defined as the negative base-10 logarithm of the molar concentration.

Input: Determine its reported pIC50: CSC[C@H](NC(=O)COc1cccc2cnccc12)C(=O)N[C@@H](Cc1ccccc1)[C@H](O)C(=O)N1CSC[C@H]1C(=O)NC(C)(C)C
Output: 8.19

Input: Tell me measured pIC50 for CC(C)(C)NC(=O)[C@@H]1CSCN1C(=O)[C@@H](O)[C@H](Cc1ccccc1)NC(=O)[C@H](CC(N)=O)NC(=O)OCc1ccccc1 please.
Output: 7.51

Input: Specify reported pIC50 for the compound shown: CC(C)(C)NC(=O)[C@H]1N(C(=O)[C@@H](O)[C@H](Cc2ccccc2)NC(=O)[C@H](CC(N)=O)NC(=O)COc2cccc3ccccc23)CSC1(C)C
Output: 8.55

Input: Return pIC50 (reported value) for this compound: CC(C)(C)NC(=O)[C@@H]1CCCN1C(=O)[C@@H](O)[C@H](Cc1ccccc1)NC(=O)[C@H](CC(N)=O)NC(=O)OCc1ccccc1
Output: 7.05

Input: Read off the recorded pIC50 for CC(C)(C)NC(=O)[C@@H]1CSCN1C(=O)[C@@H](O)[C@H](Cc1ccccc1)NC(=O)[C@H](CC(N)=O)NC(=O)COc1cccc2ccccc12
Output: 8.06

----------
- Assay Name: Half life in dog at 3 mg/kg, po or iv
- Format: ADME, organism-based, Canis lupus familiaris
- Condition Parameters: in vivo
Recorded Endpoint: half-life

Input: In one line, give reported half-life of the entry CC(C)[C@@H](Nc1ccc(CNC(=O)[C@@H]2SCCN2C(=O)C[C@H](N)Cc2cc(F)c(F)cc2F)cc1)C(=O)O .
Output: > 3 h

----------
- Target Or System: Angiotensin-converting enzyme (Homo sapiens, UniProt P12821)
- Sequence (P12821 whole entry): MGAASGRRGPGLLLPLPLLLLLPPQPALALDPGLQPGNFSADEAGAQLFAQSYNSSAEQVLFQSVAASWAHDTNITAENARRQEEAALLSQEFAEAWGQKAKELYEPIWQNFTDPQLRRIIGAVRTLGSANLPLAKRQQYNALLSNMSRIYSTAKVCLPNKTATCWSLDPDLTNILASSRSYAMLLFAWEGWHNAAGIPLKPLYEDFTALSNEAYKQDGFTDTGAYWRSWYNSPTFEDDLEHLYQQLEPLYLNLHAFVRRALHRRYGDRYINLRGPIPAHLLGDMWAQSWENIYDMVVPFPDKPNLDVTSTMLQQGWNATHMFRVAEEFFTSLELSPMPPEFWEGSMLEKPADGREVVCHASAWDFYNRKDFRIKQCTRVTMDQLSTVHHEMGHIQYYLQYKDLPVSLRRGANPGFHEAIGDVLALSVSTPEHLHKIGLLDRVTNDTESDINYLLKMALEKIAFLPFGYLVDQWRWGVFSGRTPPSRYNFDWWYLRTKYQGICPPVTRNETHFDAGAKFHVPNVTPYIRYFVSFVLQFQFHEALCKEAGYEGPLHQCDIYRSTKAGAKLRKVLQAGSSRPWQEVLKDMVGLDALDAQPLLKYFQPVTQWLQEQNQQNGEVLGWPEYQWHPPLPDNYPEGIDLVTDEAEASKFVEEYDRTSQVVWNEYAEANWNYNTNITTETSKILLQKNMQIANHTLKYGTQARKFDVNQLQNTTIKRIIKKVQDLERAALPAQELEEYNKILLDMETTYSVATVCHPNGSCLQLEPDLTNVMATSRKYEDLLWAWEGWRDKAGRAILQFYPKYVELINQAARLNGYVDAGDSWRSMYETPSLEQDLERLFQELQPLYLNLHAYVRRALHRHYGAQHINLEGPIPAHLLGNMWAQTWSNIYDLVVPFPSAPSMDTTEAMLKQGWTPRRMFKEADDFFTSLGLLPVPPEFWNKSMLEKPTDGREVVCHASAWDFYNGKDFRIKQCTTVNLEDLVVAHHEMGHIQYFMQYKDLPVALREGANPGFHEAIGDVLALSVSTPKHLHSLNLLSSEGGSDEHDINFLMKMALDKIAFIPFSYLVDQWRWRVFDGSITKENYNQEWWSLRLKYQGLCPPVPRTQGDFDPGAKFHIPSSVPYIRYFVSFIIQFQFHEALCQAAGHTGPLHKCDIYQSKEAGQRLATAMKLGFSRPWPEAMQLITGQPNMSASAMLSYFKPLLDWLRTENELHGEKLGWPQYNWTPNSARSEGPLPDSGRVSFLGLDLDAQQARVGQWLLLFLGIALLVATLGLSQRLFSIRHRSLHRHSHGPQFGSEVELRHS
Recorded Endpoint: pIC50
Reminder that pIC50 means the negative base-10 logarithm of the concentration expressed in mol/L.

Input: Lab note: Angiotensin-converting enzyme (Homo sapiens, UniProt P12821) assay, enter pIC50 for C[C@H](CS)C(=O)N1CSC[C@H]1C(=O)O here
Output: 6.43

----------
- Assay Name: Half life in rat at 10 mg/kg, iv
- Type: ADME, organism-based
- Condition Parameters: in vivo
Recorded Endpoint: half-life (h)
API: value field is a number in h; no unit string.

Input: Provide only the value of recorded half-life for Cc1ccccc1CNC(=O)[C@H]1N(C(=O)[C@@H](O)[C@H](Cc2ccccc2)NC(=O)c2cccc(O)c2C)CSC1(C)C
Output: 1.55
